Below, each entry is listed with its recorded Percent Effect.
- Test system: Wolbachia pipientis
- procedure.details: Anti-Wolbachia Cell-Based Screen
- Assay type: functional
- Parameters: scale not given: in the data most compounds retested in dose-response had high values
- measurement.setup: 5 µM
In all, about 48,000 compounds went through this assay and about 13,000 (27%) showed an effect of 50% or more. This is one part of the list.
Respond numerically; units are % and should not be typed.

* Cc1nc(CN2Cc3nccn3CC(CN3CCOCC3)C2)cs1.O=C(O)C(F)(F)F.O=C(O)C(F)(F)F (stereo not drawn) | -3.569
* CCc1ncc2c(n1)CN(C(=O)CNC(=O)C(C)C)C2 | -10.3

Requested read-out: Percent Effect. Entry: COCCNC(=O)CCNC(=O)c1ccc(N2CCC(C)=N2)cc1 -2.111

Again, but for Fc1cccc2ncnc(NCC3(N4CCOCC4)CCSC3)c12 (stereo not drawn) -8.869

Again, but for CC(C)N(CCNC(=O)c1n[nH]c2ccccc12)C(C)C 25.98

----------
- System: Wolbachia pipientis
- procedure.details: Anti-Wolbachia Cell-Based Screen
- Format: functional
- Design: scale not given: in the data most compounds retested in dose-response had high values
- measurement.setup: 5 µM
Out of some 48,000 compounds screened, about 13,000 (27%) showed an effect of 50% or more. This is one part of the list.
Below, each entry is listed with its recorded Percent Effect.
Respond numerically; units are % and should not be typed.

Worked cases, answers included:
- CCN(CC(C)C#N)C(=O)CSc1ccc(C(F)(F)F)cn1 (stereo not given): -16
- Cc1nnc(C(C)Nc2cccc(COCC(F)(F)C(F)F)c2)o1 (stereo not given): 6.562
- CCN1CCCC(c2nc(O)c3cc(C)ccc3n2)C1 (stereo not given): 115.3
- COc1c(C(=O)NCc2cccnc2)nnn1Cc1ccc(C)cc1: 7.937
- O=C(NCC1(N2CCOCC2)CCSC1)Nc1ccncc1 (stereo not given): -3.46

Requested read-out: Percent Effect. Entry: Cc1cc(NCC(C)C)ccc1C(=O)N(C)C -5.944

Again, but for CC(C)(C)C(NC(=O)CCS(C)(=O)=O)c1ccc(F)cc1F (stereo not given) 7.431

----------
Below, each entry is listed with its recorded Percent Effect.
- Tested on: Wolbachia pipientis
- procedure.details: Anti-Wolbachia Cell-Based Screen
- Type: functional
- Parameters: scale not given: in the data most compounds retested in dose-response had high values
- measurement.setup: 5 µM
Hit rate of the full screen: of about 48,000 compounds, about 13,000 (27%) showed an effect of 50% or more. Some of the results follow.
Respond numerically; units are % and should not be typed.

* Cc1cc(C(=O)N2CCCCC2C)ccc1NC(=O)N1CCOCC1 (stereo unspecified) | 99.93
* CNC(=O)NC(=O)C(C)N1CCN(C2CCCC2)CC1 (stereo unspecified) | -18

Requested read-out: Percent Effect. Entry: Cc1cc(C(=O)N2CCCC2)ccc1NCC(=O)N1CCOCC1 96.96

Again, but for Cc1cc(C(=O)N2CCCCC2C)ccc1NCCCO (stereo unspecified) 3.863

Again, but for Cc1cc(C(=O)N2CCCCC2C)ccc1NCC(=O)N1CCOCC1 (stereo unspecified) -5.879

Again, but for Cc1cc(C(=O)N2CCCC2)ccc1NCC(=O)N1CCCCC1C (stereo unspecified) 98.59

----------
Below, each entry is listed with its recorded Percent Effect.
- Test system: Wolbachia pipientis
- procedure.details: Anti-Wolbachia Cell-Based Screen
- Type: functional
- Set-up: scale not given: in the data most compounds retested in dose-response had high values
- measurement.setup: 5 µM
Hit rate of the full screen: of about 48,000 compounds, about 13,000 (27%) showed an effect of 50% or more. The list shows a part of the results.
Respond numerically; units are % and should not be typed.

- O=C(Cc1cccc2cccnc12)N1CCCN(c2cccnn2)CC1: -1.609
- O=C(CC1CCCO1)N1CCCN(c2cccnn2)CC1 (stereo not given): 79.43

Find Percent Effect (Wolbachia pipientis) for the entry CC(NC(=O)N1CCN(CCc2ccccc2)CC1)c1nncn1C (stereo not given) -0.7448

Again, but for Cc1ncc(C)c(N2CCC(CCc3ccccc3)(C(=O)O)CC2)n1 1.128

Again, but for CCC[C@H]1CN(Cc2ccc3c(c2)OCCO3)C[C@@H]1NC(=O)COC -19.75

Again, but for Cc1ccc2occ(CN3CCN(c4ncccn4)CC3)c(=O)c2c1 -23.78
